Just for reference, ChEMBL document CHEMBL1134245 is where these values come from.

Target: Alpha-1D adrenergic receptor (Homo sapiens)
Sequence (P25100 whole entry): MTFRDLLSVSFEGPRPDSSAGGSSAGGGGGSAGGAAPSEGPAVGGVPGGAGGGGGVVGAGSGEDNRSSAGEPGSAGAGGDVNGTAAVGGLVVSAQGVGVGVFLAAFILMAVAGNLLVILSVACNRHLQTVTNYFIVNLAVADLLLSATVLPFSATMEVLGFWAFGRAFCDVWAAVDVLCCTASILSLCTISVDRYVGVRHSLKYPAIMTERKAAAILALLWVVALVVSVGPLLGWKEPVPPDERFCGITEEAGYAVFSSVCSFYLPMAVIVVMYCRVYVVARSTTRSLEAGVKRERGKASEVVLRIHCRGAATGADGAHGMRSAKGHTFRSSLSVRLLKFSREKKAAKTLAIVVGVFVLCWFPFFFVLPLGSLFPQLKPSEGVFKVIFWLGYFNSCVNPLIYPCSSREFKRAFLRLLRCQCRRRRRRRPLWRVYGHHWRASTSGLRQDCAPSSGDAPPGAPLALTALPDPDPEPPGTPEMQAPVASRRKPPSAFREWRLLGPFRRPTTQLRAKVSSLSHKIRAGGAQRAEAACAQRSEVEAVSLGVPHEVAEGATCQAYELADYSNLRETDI
measured parameter: pKi
FYI, pKi means -log10 of a concentration in mol per litre.

Hello, please tell me recorded pKi for this one: `COc1ccccc1N1CCN(CCn2c(=O)[nH]c3scc(-c4cccc(C)c4)c3c2=O)CC1`
9.51

###

Target sequence: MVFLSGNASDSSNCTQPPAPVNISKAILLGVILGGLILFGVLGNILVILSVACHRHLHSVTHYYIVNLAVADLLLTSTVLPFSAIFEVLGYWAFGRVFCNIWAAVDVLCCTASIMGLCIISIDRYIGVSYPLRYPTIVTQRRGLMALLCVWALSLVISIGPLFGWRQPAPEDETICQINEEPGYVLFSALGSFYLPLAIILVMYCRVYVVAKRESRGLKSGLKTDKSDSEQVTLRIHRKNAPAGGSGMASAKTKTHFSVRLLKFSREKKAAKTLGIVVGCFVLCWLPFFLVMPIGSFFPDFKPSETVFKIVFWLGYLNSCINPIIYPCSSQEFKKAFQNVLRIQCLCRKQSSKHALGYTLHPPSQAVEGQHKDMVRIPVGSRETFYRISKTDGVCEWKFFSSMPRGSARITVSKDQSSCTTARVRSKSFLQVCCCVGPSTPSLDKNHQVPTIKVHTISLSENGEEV
measured parameter: Ki (nM)
The reply should contain only the number, in nM.

COc1ccccc1N1CCN(CCn2c(=O)[nH]c3sc(C)c(-c4ccccc4)c3c2=O)CC1 :: 2.63
COc1ccccc1N1CCN(CCCn2c(=O)[nH]c3scc(-c4ccccc4)c3c2=O)CC1 :: 8.49

Here is another molecule to look at.
Hello, please tell me recorded Ki for this one: COc1ccccc1N1CCN(CCn2c(=O)[nH]c3scc(-c4cccc(C)c4)c3c2=O)CC1 [A-123189]
4.17

###

Target: UniProtKB P43140
Sequence (P43140 whole entry): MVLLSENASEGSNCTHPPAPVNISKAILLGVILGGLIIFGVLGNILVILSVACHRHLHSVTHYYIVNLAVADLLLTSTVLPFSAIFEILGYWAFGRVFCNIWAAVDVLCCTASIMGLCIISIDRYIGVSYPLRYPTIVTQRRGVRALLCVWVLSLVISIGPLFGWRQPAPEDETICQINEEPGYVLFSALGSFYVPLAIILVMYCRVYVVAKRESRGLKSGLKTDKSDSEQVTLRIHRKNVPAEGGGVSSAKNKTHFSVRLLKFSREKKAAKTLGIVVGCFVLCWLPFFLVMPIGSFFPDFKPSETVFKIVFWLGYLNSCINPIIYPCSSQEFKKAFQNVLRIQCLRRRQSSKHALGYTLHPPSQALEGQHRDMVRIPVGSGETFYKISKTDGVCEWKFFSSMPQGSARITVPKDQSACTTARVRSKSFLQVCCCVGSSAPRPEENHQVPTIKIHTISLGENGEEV
measured parameter: Ki (nM)
The reply should contain only the number, in nM.

COc1ccccc1N1CCN(CCn2c(=O)[nH]c3scc(-c4cccc(C)c4)c3c2=O)CC1 :: 3.47
COc1ccccc1N1CCN(CCn2c(=O)[nH]c3scc(-c4ccccc4)c3c2=O)CC1 :: 2.43

Hello, please tell me recorded Ki for this one: `COc1ccccc1N1CCN(CCn2c(=O)[nH]c3sc(C)c(-c4ccccc4)c3c2=O)CC1`
1.97

###

Molecular target: D(2) dopamine receptor (Rattus norvegicus)
Sequence (P61169 whole entry): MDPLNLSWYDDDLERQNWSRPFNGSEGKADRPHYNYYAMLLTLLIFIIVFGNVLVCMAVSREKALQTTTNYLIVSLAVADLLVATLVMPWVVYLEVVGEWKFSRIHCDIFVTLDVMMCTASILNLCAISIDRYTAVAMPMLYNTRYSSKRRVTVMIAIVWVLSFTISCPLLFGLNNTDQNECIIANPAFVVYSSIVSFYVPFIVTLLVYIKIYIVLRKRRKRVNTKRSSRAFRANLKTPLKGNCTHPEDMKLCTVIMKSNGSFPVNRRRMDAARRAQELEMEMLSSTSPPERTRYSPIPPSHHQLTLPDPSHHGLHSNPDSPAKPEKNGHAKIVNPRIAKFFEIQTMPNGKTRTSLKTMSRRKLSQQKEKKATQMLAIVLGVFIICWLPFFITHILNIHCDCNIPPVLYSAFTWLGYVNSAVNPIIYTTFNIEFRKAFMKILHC
Assay: Ancillary Binding affinity towards rat Dopamine receptor D2
measured parameter: Ki (µM)
The reply should contain only the number, in µM.

COc1ccccc1N1CCN(CCn2c(=O)[nH]c3scc(-c4cccc(C)c4)c3c2=O)CC1 :: 0.017

Here is another molecule to look at.
Hello, please tell me recorded Ki for this one: `COc1ccccc1N1CCN(CCn2c(=O)[nH]c3scc(-c4ccccc4)c3c2=O)CC1`
0.05

###

Target: D(1A) dopamine receptor (Rattus norvegicus)
Sequence (P18901 whole entry): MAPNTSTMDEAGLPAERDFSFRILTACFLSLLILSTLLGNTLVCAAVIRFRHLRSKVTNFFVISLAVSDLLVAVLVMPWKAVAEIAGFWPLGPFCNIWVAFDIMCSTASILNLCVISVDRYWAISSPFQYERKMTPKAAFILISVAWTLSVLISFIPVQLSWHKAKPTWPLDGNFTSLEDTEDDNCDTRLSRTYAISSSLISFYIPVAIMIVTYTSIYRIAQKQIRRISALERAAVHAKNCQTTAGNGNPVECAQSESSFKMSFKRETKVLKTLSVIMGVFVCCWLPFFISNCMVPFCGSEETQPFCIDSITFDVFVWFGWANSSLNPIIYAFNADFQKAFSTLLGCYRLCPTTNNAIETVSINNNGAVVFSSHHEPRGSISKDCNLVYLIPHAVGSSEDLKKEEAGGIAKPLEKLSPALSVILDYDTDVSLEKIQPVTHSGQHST
Experiment: Ancillary Binding affinity to rat Dopamine receptor D1
Reported pKi values follow for various molecules
FYI, pKi means -log10 of a concentration in mol per litre.

COc1ccccc1N1CCN(CCn2c(=O)[nH]c3scc(-c4ccccc4)c3c2=O)CC1 :: 5.22

Hello, please tell me recorded pKi for this one: `COc1ccccc1N1CCN(CCn2c(=O)[nH]c3scc(-c4cccc(C)c4)c3c2=O)CC1`
4.91

###

Protein target, amino acids: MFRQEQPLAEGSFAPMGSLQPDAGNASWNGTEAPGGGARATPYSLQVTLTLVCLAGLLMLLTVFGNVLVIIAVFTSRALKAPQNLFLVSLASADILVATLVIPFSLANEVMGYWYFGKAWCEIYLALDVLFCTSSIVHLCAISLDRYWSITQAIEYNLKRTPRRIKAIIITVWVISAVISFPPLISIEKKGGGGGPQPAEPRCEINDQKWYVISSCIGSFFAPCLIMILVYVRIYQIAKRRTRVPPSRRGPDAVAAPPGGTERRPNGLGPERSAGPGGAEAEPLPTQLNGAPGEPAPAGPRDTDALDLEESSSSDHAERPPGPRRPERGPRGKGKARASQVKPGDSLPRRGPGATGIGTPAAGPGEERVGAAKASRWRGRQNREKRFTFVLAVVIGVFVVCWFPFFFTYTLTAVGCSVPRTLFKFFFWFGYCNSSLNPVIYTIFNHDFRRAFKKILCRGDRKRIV
measured parameter: pKi
FYI, pKi means -log10 of a concentration in mol per litre.

Hello, please tell me recorded pKi for this one: `COc1ccccc1N1CCN(CCn2c(=O)[nH]c3scc(-c4ccccc4)c3c2=O)CC1`
7.11

###

Biological target: Alpha-1A adrenergic receptor (Bos taurus)
Sequence (P18130 whole entry): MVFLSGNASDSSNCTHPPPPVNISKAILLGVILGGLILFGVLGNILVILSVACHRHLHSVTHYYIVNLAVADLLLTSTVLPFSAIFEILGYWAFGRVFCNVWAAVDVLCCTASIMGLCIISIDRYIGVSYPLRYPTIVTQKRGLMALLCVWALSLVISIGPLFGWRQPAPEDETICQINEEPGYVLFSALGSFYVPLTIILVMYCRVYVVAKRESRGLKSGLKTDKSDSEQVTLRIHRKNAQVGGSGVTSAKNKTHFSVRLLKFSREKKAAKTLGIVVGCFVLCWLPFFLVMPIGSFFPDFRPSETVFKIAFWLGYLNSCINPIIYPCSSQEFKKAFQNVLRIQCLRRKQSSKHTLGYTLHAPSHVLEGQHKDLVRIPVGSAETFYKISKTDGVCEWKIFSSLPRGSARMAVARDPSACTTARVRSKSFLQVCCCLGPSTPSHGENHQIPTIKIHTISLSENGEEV
pKi: −log10 of the molar value.
Mark Satisfied for reported pKi of 9 or greater; mark Not satisfied for anything smaller.

Please review the entries below; each comes with its answer.
COc1ccccc1N1CCN(CCN2C(=O)CC3(CCCC3)CC2=O)CC1 [BMY-7378] :: Not satisfied
COc1ccccc1N1CCN(CCn2c(=O)[nH]c3scc(-c4ccccc4)c3c2=O)CC1 [A-119637] :: Satisfied
COc1ccccc1N1CCN(CCn2c(=O)[nH]c3scc(-c4cccc(C)c4)c3c2=O)CC1 [A-123189] :: Satisfied

Next:
Please indicate if the recorded pKi for `COc1ccccc1N1CCN(CCn2c(=O)[nH]c3sc(C)c(-c4ccccc4)c3c2=O)CC1` meets or exceeds 9.
Satisfied

###

Biological target: UniProtKB P35368
Sequence (P35368 whole entry): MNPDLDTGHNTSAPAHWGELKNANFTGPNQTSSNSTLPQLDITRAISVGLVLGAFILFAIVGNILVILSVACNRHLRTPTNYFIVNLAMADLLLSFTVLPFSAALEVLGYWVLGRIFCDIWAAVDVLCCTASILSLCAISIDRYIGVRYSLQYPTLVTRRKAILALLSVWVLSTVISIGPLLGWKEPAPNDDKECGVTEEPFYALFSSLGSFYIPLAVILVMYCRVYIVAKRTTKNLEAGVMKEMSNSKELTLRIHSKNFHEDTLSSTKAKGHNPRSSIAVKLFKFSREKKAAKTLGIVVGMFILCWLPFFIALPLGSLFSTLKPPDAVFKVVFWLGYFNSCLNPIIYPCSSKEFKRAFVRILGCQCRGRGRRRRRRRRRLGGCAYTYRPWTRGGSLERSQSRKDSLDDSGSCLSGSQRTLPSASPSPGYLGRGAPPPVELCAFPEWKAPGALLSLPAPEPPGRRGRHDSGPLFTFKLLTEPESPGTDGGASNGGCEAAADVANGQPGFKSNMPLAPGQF
Reported pKi values follow for various compounds
FYI, pKi means -log10 of a concentration in mol per litre.

COc1ccccc1N1CCN(CCCn2c(=O)[nH]c3scc(-c4ccccc4)c3c2=O)CC1 :: 7.80

Here is another compound to look at.
Hello, please tell me recorded pKi for this one: `COc1ccccc1N1CCN(CCn2c(=O)[nH]c3scc(-c4ccccc4)c3c2=O)CC1`
8.33

###

Assay: Ancillary Binding affinity towards rat 5-hydroxytryptamine 2 receptor
measured parameter: pKi
FYI, pKi means -log10 of a concentration in mol per litre.

COc1ccccc1N1CCN(CCn2c(=O)[nH]c3scc(-c4cccc(C)c4)c3c2=O)CC1 [A-123189] :: 5.66

Here is another compound to look at.
Hello, please tell me recorded pKi for this one: COc1ccccc1N1CCN(CCn2c(=O)[nH]c3scc(-c4ccccc4)c3c2=O)CC1 [A-119637]
6.86
